What IC50 was measured for each of the following?
tested on: HCT116^+/+; assay: Antiproliferative assay (MTS, 72 h) on HCT116 wild type; format: cell-based, human; conditions: MTS, 72 h incubation; read-out: Activity IC50 HCT116^+/+
Give bare numbers, in µM.

Worked cases, answers included:
O=C(Nc1cc(C(F)(F)F)ccc1Br)c1ccc2ccccc2c1O [6k]	8.18
O=C(Nc1cccc(C(F)(F)F)c1)c1ccc2ccccc2c1O [7b]	6.25
O=C(Nc1cc(Cl)cc(Cl)c1)c1ccc2ccccc2c1O [5i]	2.32
O=C(Nc1cc(Cl)c(Cl)cc1Cl)c1ccc2ccccc2c1O [5j]	3

Please report IC50 for every entry that follows.
1. O=C(Nc1c(F)c(F)c(Br)c(F)c1F)c1ccc2ccccc2c1O [4y]
2. O=C(Nc1ccc(Br)c(Cl)c1)c1ccc2ccccc2c1O [5t]
3. O=C(Nc1ccc([N+](=O)[O-])c(C(F)(F)F)c1)c1ccc2ccccc2c1O [7p]
4. O=C(Nc1ccc(F)cc1)c1ccc2ccccc2c1O [4c]

Key:
2.41
12.3
1.64
2.49

Can you give me IC50 for all of these, one by one?
1. O=C(Nc1ccc(C(F)(F)F)cc1Cl)c1ccc2ccccc2c1O [5o]
2. O=C(Nc1cc(Br)ccc1Cl)c1ccc2ccccc2c1O [5q]

Key:
4.92
4.18
